Test system: LX-2
assay_details: Cytotoxicity against human LX2 cells at 5 uM incubated for 48 hrs by CCK8 assay
Type: toxicity, cell-based
condition_description: lx-2, 48 h
assay_readout: Activity

INSERT INTO results (compound, assay_readout, experimental_value) VALUES
  ('CC(C)OC(=O)OCOP(=O)(CO[C@H](C)Cn1cnc2c(N)ncnc21)OCOC(=O)OC(C)C.O=C(O)/C=C/C(=O)O [TENOFOVIR DISOPROXIL FUMARATE]', 'Activity', 'Non-toxic'),
  ('CC(=O)N[C@H]1[C@H](OCCCCC(=O)NCCCNC(=O)CCOCC(COCCC(=O)NCCCNC(=O)CCCCO[C@@H]2O[C@H](CO)[C@H](O)[C@@H](O)[C@H]2NC(C)=O)(COCCC(=O)NCCCNC(=O)CCCCO[C@@H]2O[C@H](CO)[C@H](O)[C@@H](O)[C@H]2NC(C)=O)NC(=O)CCC(=O)NCCOCCOCCOCCOCCn2cc(COP(=O)(CO[C@H](C)Cn3cnc4c(N)ncnc43)OCOC(=O)OC(C)C)nn2)O[C@H](CO)[C@H](O)[C@H]1O (some centres not stated)', 'Activity', 'Toxic'),
  ('CC(=O)N[C@H]1[C@H](OCCCCC(=O)NCCOCCOCCOCCOCCn2cc(COP(=O)(COCCn3cnc4c(N)ncnc43)OCOC(=O)C(C)(C)C)nn2)O[C@H](CO)[C@H](O)[C@H]1O (some centres not stated)', 'Activity', 'Toxic'),
  ('CC(=O)N[C@H]1[C@H](OCCCCC(=O)NCCOCCOCCOCCOCCn2cc(COP(=O)(CO[C@H](C)Cn3cnc4c(N)ncnc43)OCOC(=O)C(C)(C)C)nn2)O[C@H](CO)[C@H](O)[C@H]1O (some centres not stated)', 'Activity', 'Toxic'),
  ('CC(C)(C)C(=O)OCOP(=O)(COCCn1cnc2c(N)ncnc21)OCOC(=O)C(C)(C)C', 'Activity', 'Non-toxic'),
  ('CC(C)OC(=O)[C@H](C)N[P@](=O)(CO[C@H](C)Cn1cnc2c(N)ncnc21)Oc1ccccc1 [TENOFOVIR ALAFENAMIDE]', 'Activity', 'Toxic'),
  ('CC(=O)N[C@H]1[C@H](OCCCCC(=O)NCCCNC(=O)CCOCC(COCCC(=O)NCCCNC(=O)CCCCO[C@@H]2O[C@H](CO)[C@H](O)[C@@H](O)[C@H]2NC(C)=O)(COCCC(=O)NCCCNC(=O)CCCCO[C@@H]2O[C@H](CO)[C@H](O)[C@@H](O)[C@H]2NC(C)=O)NC(=O)CCC(=O)NCCOCCOCCOCCOCCn2cc(COP(=O)(COCCn3cnc4c(N)ncnc43)OCOC(=O)C(C)(C)C)nn2)O[C@H](CO)[C@H](O)[C@H]1O (some centres not stated)', 'Activity', 'Toxic');

---

assay_details: Cmax in Sprague-Dawley rat at 5 mg/kg, iv by LC-MS analysis
Assay type: ADME, organism-based
condition_description: in vivo
assay_readout: Cmax

INSERT INTO assay_data (molecule, experimental_value) VALUES
  ('CC(=O)N[C@H]1[C@H](OCCCCC(=O)NCCOCCOCCOCCOCCn2cc(COP(=O)(CO[C@H](C)Cn3cnc4c(N)ncnc43)OCOC(=O)C(C)(C)C)nn2)O[C@H](CO)[C@H](O)[C@H]1O (some centres not stated)', '2030 ng/mL'),
  ('CC(=O)N[C@H]1[C@H](OCCCCC(=O)NCCOCCOCCOCCOCCn2cc(COP(=O)(COCCn3cnc4c(N)ncnc43)OCOC(=O)C(C)(C)C)nn2)O[C@H](CO)[C@H](O)[C@H]1O (some centres not stated)', '2010 ng/mL');
